# assay remarks: Single-dose plasma pharmacokinetics after i.g. administration
# Format: in vivo, SD rats
# experimental context: SD, rat, plasma, po; i.g. 2 mg/kg single dose, female rats; read-out: t1/2z (converted)

# compound smiles, half-life [h]
rows = [
    ("C[C@H]1CC[C@@H]2N(C1)C[C@H]1[C@@H]3C[C@H]4[C@@H](CC(=O)[C@H]5C[C@@H](O)CC[C@@]54C)[C@@H]3CC[C@@H]1[C@]2(C)O", 4.05),
]

---

# assay remarks: Single-dose plasma pharmacokinetics after i.g. administration
# Format: in vivo, SD rats
# experimental context: SD, rat, plasma, po; i.g. 2 mg/kg single dose, female rats
readout label: AUC(0-inf) (ng·h/mL)

# compound, value unit, measured result
measured = [
    ("C[C@H]1CC[C@@H]2N(C1)C[C@H]1[C@@H]3C[C@H]4[C@@H](CC(=O)[C@H]5C[C@@H](O)CC[C@@]54C)[C@@H]3CC[C@@H]1[C@]2(C)O [verticinone, Verticinone]", "ng·h/mL", 18.8),
]

---

# assay remarks: Multiple-dose (successive i.g.) plasma pharmacokinetics
# Type: in vivo, SD rats
# experimental context: SD, rat, plasma, po; successive i.g. 2 mg/kg, female rats

# molecule, Tmax [min]
measured = [
    ("C[C@H]1CC[C@@H]2N(C1)C[C@H]1[C@@H]3C[C@H]4[C@@H](CC(=O)[C@H]5C[C@@H](O)CC[C@@]54C)[C@@H]3CC[C@@H]1[C@]2(C)O [verticinone, Verticinone]", 22.8),
]

---

# assay remarks: Single-dose plasma pharmacokinetics after i.g. administration
# Format: in vivo, SD rats
# experimental context: SD, rat, plasma, po; i.g. 2 mg/kg single dose, female rats
# Description: Pharmacokinetic studies of verticinone after intravenous (i.v.) and intragastrical (i.g.) administration to rats were designed to determine pharmacokinetic parameters and absolute bioavailability. […] The quantification of verticinone was performed by a LC-MS method based on the previously reported method with slight modifications. […] The pharmacokinetic parameters were calculated by the DAS 2.0 software (Chinese Pharmacological Association, Beijing, China) using a standard non-compartmental method. […]

# compound smiles, Tmax / min
measured = [
    ("C[C@H]1CC[C@@H]2N(C1)C[C@H]1[C@@H]3C[C@H]4[C@@H](CC(=O)[C@H]5C[C@@H](O)CC[C@@]54C)[C@@H]3CC[C@@H]1[C@]2(C)O", 24),
]

---

# assay remarks: Single-dose plasma pharmacokinetics after i.g. administration
# Type: in vivo, SD rats
# experimental context: SD, rat, plasma, po; i.g. 1 mg/kg single dose, male rats; read-out: t1/2z (converted)
readout label: half-life (h)

# compound smiles, measured result
data = [
    ("C[C@H]1CC[C@@H]2N(C1)C[C@H]1[C@@H]3C[C@H]4[C@@H](CC(=O)[C@H]5C[C@@H](O)CC[C@@]54C)[C@@H]3CC[C@@H]1[C@]2(C)O", 2.78),
]

---

# assay remarks: Single-dose plasma pharmacokinetics after i.g. administration
# Type: in vivo, SD rats
# experimental context: SD, rat, plasma, po; i.g. 2 mg/kg single dose, male rats; read-out: MRT0–t
readout label: MRT last

# compound, measured result
data = [
    ("C[C@H]1CC[C@@H]2N(C1)C[C@H]1[C@@H]3C[C@H]4[C@@H](CC(=O)[C@H]5C[C@@H](O)CC[C@@]54C)[C@@H]3CC[C@@H]1[C@]2(C)O [verticinone, Verticinone]", "3.62 h"),
]

---

# assay remarks: Plasma protein binding in vitro by ultrafiltration, human plasma
# Assay type: in vitro ADME, humans
# experimental context: human plasma, 5 ng/mL, ultrafiltration, n = 4; read-out: Protein binding rates (%) (converted)

# compound smiles, fraction unbound at 30 min, 5 ng/mL
data = [
    ("C[C@H]1CC[C@@H]2N(C1)C[C@H]1[C@@H]3C[C@H]4[C@@H](CC(=O)[C@H]5C[C@@H](O)CC[C@@]54C)[C@@H]3CC[C@@H]1[C@]2(C)O", 0.074),
]

---

# assay remarks: Multiple-dose (successive i.g.) plasma pharmacokinetics
# Type: in vivo, SD rats
# experimental context: SD, rat, plasma, po; successive i.g. 2 mg/kg, male rats
readout label: Tmax (min)

# compound smiles, value unit, measured result
records = [
    ("C[C@H]1CC[C@@H]2N(C1)C[C@H]1[C@@H]3C[C@H]4[C@@H](CC(=O)[C@H]5C[C@@H](O)CC[C@@]54C)[C@@H]3CC[C@@H]1[C@]2(C)O", "min", 48),
]

---

# assay remarks: Single-dose plasma pharmacokinetics after i.g. administration
# Assay type: in vivo, SD rats
# experimental context: SD, rat, plasma, po; i.g. 2 mg/kg single dose, male rats
readout label: AUC(0-inf)

# compound smiles, readout label, measured result
rows = [
    ("C[C@H]1CC[C@@H]2N(C1)C[C@H]1[C@@H]3C[C@H]4[C@@H](CC(=O)[C@H]5C[C@@H](O)CC[C@@]54C)[C@@H]3CC[C@@H]1[C@]2(C)O", "AUC(0-inf)", "475 ng·h/mL"),
]

---

# assay remarks: Single-dose plasma pharmacokinetics after i.g. administration
# Type: in vivo, SD rats
# experimental context: SD, rat, plasma, po; i.g. 1 mg/kg single dose, female rats; read-out: MRT0–t

# compound smiles, MRT last
data = [
    ("C[C@H]1CC[C@@H]2N(C1)C[C@H]1[C@@H]3C[C@H]4[C@@H](CC(=O)[C@H]5C[C@@H](O)CC[C@@]54C)[C@@H]3CC[C@@H]1[C@]2(C)O", "3.59 h"),
]

---

# assay remarks: Single-dose plasma pharmacokinetics after i.g. administration
# Format: in vivo, SD rats
# experimental context: SD, rat, plasma, po; i.g. 2 mg/kg single dose, male rats
# Description: Pharmacokinetic studies of verticinone after intravenous (i.v.) and intragastrical (i.g.) administration to rats were designed to determine pharmacokinetic parameters and absolute bioavailability. […] The quantification of verticinone was performed by a LC-MS method based on the previously reported method with slight modifications. […] The pharmacokinetic parameters were calculated by the DAS 2.0 software (Chinese Pharmacological Association, Beijing, China) using a standard non-compartmental method. […]
readout label: Tmax (h)

# compound, measured result
rows = [
    ("C[C@H]1CC[C@@H]2N(C1)C[C@H]1[C@@H]3C[C@H]4[C@@H](CC(=O)[C@H]5C[C@@H](O)CC[C@@]54C)[C@@H]3CC[C@@H]1[C@]2(C)O [verticinone, Verticinone]", 1.45),
]

---

# assay remarks: Single-dose plasma pharmacokinetics after i.g. administration
# Type: in vivo, SD rats
# experimental context: SD, rat, plasma, po; i.g. 2 mg/kg single dose, male rats

# molecule, value unit, AUC(0-t)
rows = [
    ("C[C@H]1CC[C@@H]2N(C1)C[C@H]1[C@@H]3C[C@H]4[C@@H](CC(=O)[C@H]5C[C@@H](O)CC[C@@]54C)[C@@H]3CC[C@@H]1[C@]2(C)O [verticinone, Verticinone]", "µg·h/mL", 0.446),
]

---

# assay remarks: Plasma protein binding in vitro by ultrafiltration, rat plasma
# Assay type: in vitro ADME, rats
# experimental context: rat plasma, 5 ng/mL, ultrafiltration, n = 4; read-out: Protein binding rates (%) (converted)
readout label: fraction unbound at 30 min, 5 ng/mL

# compound, readout label, measured result
measured = [
    ("C[C@H]1CC[C@@H]2N(C1)C[C@H]1[C@@H]3C[C@H]4[C@@H](CC(=O)[C@H]5C[C@@H](O)CC[C@@]54C)[C@@H]3CC[C@@H]1[C@]2(C)O [verticinone, Verticinone]", "fraction unbound at 30 min, 5 ng/mL", 0.087),
]

---

# assay remarks: Single-dose plasma pharmacokinetics after i.g. administration
# Format: in vivo, SD rats
# experimental context: SD, rat, plasma, po; i.g. 4 mg/kg single dose, male rats; read-out: Vz/F

# compound smiles, value unit, Vd/F
rows = [
    ("C[C@H]1CC[C@@H]2N(C1)C[C@H]1[C@@H]3C[C@H]4[C@@H](CC(=O)[C@H]5C[C@@H](O)CC[C@@]54C)[C@@H]3CC[C@@H]1[C@]2(C)O", "L/kg", 18.6),
]

---

# assay remarks: Plasma pharmacokinetics after i.v. administration
# Assay type: in vivo, SD rats
# experimental context: SD, rat, plasma, iv; i.v. 0.4 mg/kg, male rats

# compound smiles, AUC(0-t), ng·h/mL
records = [
    ("C[C@H]1CC[C@@H]2N(C1)C[C@H]1[C@@H]3C[C@H]4[C@@H](CC(=O)[C@H]5C[C@@H](O)CC[C@@]54C)[C@@H]3CC[C@@H]1[C@]2(C)O", 160),
]

---

# assay remarks: Plasma pharmacokinetics after i.v. administration
# Assay type: in vivo, SD rats
# experimental context: SD, rat, plasma, iv; i.v. 0.4 mg/kg, female rats

# compound, value unit, AUC(0-inf)
records = [
    ("C[C@H]1CC[C@@H]2N(C1)C[C@H]1[C@@H]3C[C@H]4[C@@H](CC(=O)[C@H]5C[C@@H](O)CC[C@@]54C)[C@@H]3CC[C@@H]1[C@]2(C)O [verticinone, Verticinone]", "ng·h/mL", 98.9),
]

// data source = paper PMC6271218
